Test system: SK-MEL-2 melanoma
Assay: NCI tumour cell line growth inhibition, 48 h
Listed below: TGI values for each entry.

Known results for molecules:
molecule | assay target | result
CC(Cl)CC(=O)Nc1ccc2c(c1)oc(=O)c1cc(NC(=O)CC(C)Cl)ccc12 (centres undefined) | SK-MEL-2 melanoma | 83.6 µM
COc1ccc(/C(Cl)=C(\C=O)c2ccc(Cl)cc2)cc1 | SK-MEL-2 melanoma | 54.6 µM

Look up TGI for this molecule: CCCS(=O)OC1C(C2COC(C)(C)O2)OC2OC(C)(C)OC21 (centres undefined)
37.4 µM

Would you mind doing CCn1c2ccccc2c2cc(NC(=O)c3c(C)[nH]c(=O)[nH]c3=S)ccc21 as well?
> 100 µM

Same thing, different molecule: COc1cc(C=NCC(=O)CSC(c2ccccc2)c2ccccc2)cc(OC)c1OC
50 µM

Would you kindly repeat that for Cc1ccc2c3ccc4c(c3n(C)c2c1)C(=O)C=CC4=O ?
> 10 µM

CN(c1ccccc1)c1c(-c2ccccc2)c(=O)oc2c1ccc1occc12 , same question.
> 100 µM

Next entry: COC(=O)C[C@H]1[C@]2(C)C3=C(C)[C@H](c4ccoc4)CC3O[C@@H]2[C@@H]2OC(=O)[C@]3(C)CCC(=O)[C@@]1(C)[C@@H]23 (some centres undefined)
> 100 µM

// repeat for C=C1C(=O)O[C@H]2[C@@H](O)[C@H](C)CCC/C(C)=C/CC[C@@]3(C)O[C@@H]3C[C@@H]12 and report
48.9 µM

---

System: COLO 205 colon
Assay: NCI tumour cell line growth inhibition, 48 h
Each entry below carries its reported GI50.

Some solved entries appear below for comparison.
molecule | result
CCOc1ccc(N2C(N)=NC(N)=NC2(C)C)cc1 | 69.9 µM
NC(=NC1C2CC3CC(C2)CC1C3)Nc1ccc(I)cc1 (stereo unspecified) | 1 µM
Fc1ccc(-c2c(-c3ccncc3)n(CCN3CCOCC3)c3cccnc23)cc1 | > 25 µM
O=C(O)c1c(Cl)c(Cl)c(Cl)c(Cl)c1-c1c2cc(I)c(=O)c(I)c-2oc2c(I)c(O)c(I)cc12 | 45.8 µM

Item under review: O=C(N/N=C\c1cc(Cl)ccc1O)N/N=C/c1cc(Cl)ccc1O . Reported GI50?
4.92 µM

Same read-out for O=C(O)C(O)C(O)C1[O][Sb][O]C1CO (stereo unspecified) ?
> 100 µM

---

System: HT29 colon
Experiment: NCI tumour cell line growth inhibition, 48 h; in the data active means GI50 below about 0.43 µM; inactive means the rest
Your reply should match one of these outcome classes. TRUE (active), FALSE (inactive)

Answered examples (3):
compound string | qualitative label
CN1C=CN(Cc2ccc(-c3ccccn3)nc2)[CH-]1.CN1C=CN(Cc2ccc(-c3ccccn3)nc2)[CH-]1.[Au+3] | FALSE
O=c1c2c(=NCCCN3CCCC3)cc3c(=O)n(CCCN4CCCC4)c(=O)c4c(NCCCN5CCCC5)cc(c(O)n1CCCN1CCCC1)c2c4-3 | FALSE
CCn1c(-c2cc3ccccc3cc2OC(=O)c2ccccc2)n[nH]c1=S | FALSE

Query: recorded result category for O=C(N/N=C\c1cc(Cl)ccc1O)N/N=C/c1cc(Cl)ccc1O in this test
FALSE

Item: C=C1C(=O)O[C@H]2[C@H](OC(C)=O)[C@@H](C)CCC/C(C)=C/CC[C@]3(CO3)[C@H](O)C[C@@H]12
FALSE

# iterate: Cc1cc(I)cc(CN(C)CCCCN2CCCC2)c1O
FALSE

Record: O=C(/C=C/c1cccs1)Nc1ncc(Cc2ccccc2F)s1
TRUE

Same thing, different compound: COc1cc([N+](=O)[O-])c2ncccc2c1O
FALSE

---

Tested on: HCT-116 colon
Test: NCI tumour cell line growth inhibition, 48 h
TGI for assorted compounds
Write the value in µM as a bare number.

compound string | numeric readout
CN(NC(=O)/C(=C/C=C/c1ccccc1)NC(=O)c1ccccc1)C1=C(Cl)C(=O)[N+](c2ccccc2)=CC1 | 45.7
Cc1cc(C#Cc2ccccc2)ccc1-n1c(/C=C/c2ccc(O)cc2)nc2ccccc2c1=O | 11

Form entry - test system: HCT-116 colon; read-out: TGI; compound: Cc1ccc2c3ccc4c(c3n(C)c2c1)C(=O)C=CC4=O
4.95

---

Test system: M14 melanoma
Assay: NCI tumour cell line growth inhibition, 48 h
measured quantity: TGI

molecule | TGI
COc1cc(C(N)=O)c(OC)c(OC)c1OC | > 100 µM
CCCCCCCCCC[C@@H](O)[C@H]1CC[C@@H]([C@H]2CC[C@H]([C@H](O)CCCCCCCCCC[C@@H]3CC(CC(C)=O)C(=O)O3)O2)O1 (stereo partly specified) | 50.4 µM
Cn1cnc([N+](=O)[O-])c1Sc1nncc2[nH]cnc12 | > 100 µM
CCn1c(-c2cc3ccccc3cc2OC(=O)c2ccccc2)n[nH]c1=S | > 50 µM

We next turn to a different molecule, shown below.
What value of TGI has been recorded for this entry: Cc1ccc(NC(=O)NC23CC4CC(CC(F)(C4)C2)C3)cc1
> 100 µM

---

Test system: IGROV1 ovarian
Assay: NCI tumour cell line growth inhibition, 48 h
TGI values for the compounds below.

// solved cases for TGI follow
compound | measured quantity | result
C1CCN2CC34CC(CC5CCCN(C6CCCC3N6)C54)C2C1 (centres undefined) | TGI | > 100 µM
COc1ccc2c3c([nH]c2c1)[C@H]1C[C@H]2[C@H](C[C@@H](O)[C@H](OC)[C@H]2C(=O)O)CN1CC3 | TGI | > 100 µM
C=C1C(=O)C23C(CC(OC(C)=O)C1[C@@H]2OC(C)=O)C1(C)C(OC(C)=O)CCC(C)(C)C1C[C@@H]3OC(C)=O (some centres undefined) | TGI | 2.87 µM
COc1ccc(C2=C(N)c3ccccc3C2=O)cc1 | TGI | > 100 µM
O=C(O)C1C2CC3CC2CC31 (centres undefined) | TGI | > 100 µM
C=C1C(=O)O[C@H]2[C@H](OC(C)=O)[C@@H](C)CCC/C(C)=C/CC[C@]3(CO3)[C@H](O)C[C@@H]12 | TGI | 12.8 µM
CC[N+]1(C)CCC(O)(/C=C/c2ccc(Cl)c(Cl)c2)C(C(=O)/C=C/c2ccc(Cl)c(Cl)c2)C1 (centres undefined) | TGI | 7.8 µM
Cc1cc(=O)[nH]c(S(=O)(=O)NC(=S)Nc2ccc(Br)cc2)n1 | TGI | > 100 µM

Here is the next item to consider.
Recall the recorded TGI for COc1ccc(-c2nc(N)nc(-c3cc(C)ccc3O)c2Cl)cc1 with IGROV1 ovarian and state it.
> 100 µM

---

System: 786-0 renal
Test: NCI tumour cell line growth inhibition, 48 h
Reported log10 TGI by item:
Could you please treat all values as log10 of TGI in µM?

Sample answers from the record:
compound | measured quantity | numeric readout
C=C(C)[C@@H]1CC[C@]2(C#N)CC[C@]3(C)[C@H](CC[C@@H]4[C@@]5(C)CCCNC(C)(C)[C@@H]5CC[C@]43C)[C@@H]12 | log10 TGI | 0.49
CC(Cl)CC(=O)Nc1ccc2c(c1)oc(=O)c1cc(NC(=O)CC(C)Cl)ccc12 (stereo unspecified) | log10 TGI | 1.64
N#CCc1nc2c(s1)C(=O)c1ccccc1C2=O | log10 TGI | 1.48
CCOc1cc(C=Nc2ccc(Oc3ccc(Cl)cc3)c(Cl)c2)ccc1O | log10 TGI | 1.53

Which log10 TGI is reported with 786-0 renal for this entry: CCc1ccc(/C=C2/SC(=S)NC2=O)cc1 ?
1.91

---

Tested on: HOP-62 NSCLC
Test: NCI tumour cell line growth inhibition, 48 h
measured quantity: TGI

The following molecules have reported results that may help.
molecule | TGI
N#CCc1nc2c(s1)C(=O)c1ccccc1C2=O | 28.3 µM
O=[N+]([O-])c1ccc(-c2nc3ccccc3o2)cc1 | > 100 µM
CNc1ccc([N+](=O)[O-])cc1C(=O)N1CCC[C@H]1CO | > 100 µM
CCCCN=C(OC1C=CCCC1)SC (configuration not stated) | > 100 µM

So what's the measured TGI for this one? COCCn1cc(-c2csc(-c3c[nH]c4ccc(F)cc34)n2)c2cccnc21
> 100 µM

Moving on to CC1=CC(=O)c2[nH]c3ccccc3c2C1=O
> 25 µM

Also Cc1cc(C(C)(C)C)c(OCCCN2CCOCC2)c(C(C)(C)C)c1 , if possible.
38.6 µM

One more molecule: Cc1nc(-c2ccc(Cl)cc2)cn2c1nc1ccccc12
> 100 µM

Thanks! And NCCCN1CCN(CCCNc2ccc3ncn4c5ccccc5c(=O)c2c34)CC1 ?
> 25 µM

Next up: Cc1ccc(Oc2cc(C)ccc2P(=O)(O)O)cc1
> 100 µM

Follow-up entry: C[P+](C)(CC(F)(F)F)c1ccccc1
> 100 µM

Follow-up entry: COc1cc(SC)ccc1C(=O)N1CCCC(C)C1 (configuration not stated)
> 100 µM
